target: recombinant human Cathepsin K (Homo sapiens (Human), UniProt P43235); assay: Inhibition of Human Cathepsin K; settings: substrate Z-Gly-Pro-Arg-AMC, 60 min room temperature
Sequence (P43235 115-329): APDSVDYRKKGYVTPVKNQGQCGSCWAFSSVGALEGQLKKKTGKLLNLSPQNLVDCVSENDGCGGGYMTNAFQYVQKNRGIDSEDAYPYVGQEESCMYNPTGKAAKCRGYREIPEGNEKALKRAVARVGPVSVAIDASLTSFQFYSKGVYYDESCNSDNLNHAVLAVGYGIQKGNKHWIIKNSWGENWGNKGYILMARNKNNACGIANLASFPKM
pIC50: −log10 of the molar value.
observedProperty: pIC50

{"columns": ["smilesStr", "pIC50"],
 "data": [
  ["N#C[C@H](Cc1ccc(-c2ccc3c(c2)CCNC3=O)cc1F)NC(=O)C12CCC(CC1)CN2", 5.64]
]}

1 = CN1C(=O)Cc2ccc(-c3ccc(C[C@@H](C#N)NC(=O)C45CCC(CC4)CN5)c(F)c3)cc21
2 = CN1Cc2cc(-c3ccc(C[C@@H](C#N)NC(=O)C45CCC(CC4)CN5)cc3)ccc2C1=O
**Q:** Could you check which of 1 and 2 has a smaller value for pIC50? Kindly state the label of the option you pick.
**A:** 2
(2: 5.20, 1: 5.66)

---

Target: recombinant human DPPI (Homo sapiens (Human))
Sequence (P53634 231-394): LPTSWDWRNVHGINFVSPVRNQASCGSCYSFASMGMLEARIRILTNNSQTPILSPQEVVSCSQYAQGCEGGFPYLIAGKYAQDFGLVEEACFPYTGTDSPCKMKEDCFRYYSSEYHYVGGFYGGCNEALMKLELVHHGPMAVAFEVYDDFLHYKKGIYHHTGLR
Sequence (P53634 395-463): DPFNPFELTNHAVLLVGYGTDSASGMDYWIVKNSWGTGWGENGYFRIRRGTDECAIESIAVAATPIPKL
Sequence (P53634 25-134): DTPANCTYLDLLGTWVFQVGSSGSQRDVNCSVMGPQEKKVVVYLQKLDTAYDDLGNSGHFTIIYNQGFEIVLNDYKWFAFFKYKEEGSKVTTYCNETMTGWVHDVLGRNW
Experiment: Inhibition of Human DPPI (Cathepsin C)
Conditions: substrate Gly-Arg-AMC, 30 min room temperature
Excerpt: Inhibition of Human DPPI (Cathepsin C) Materials: Microtiterplates (Optiplate-384 F) were purchased from PerkinElmer (Prod. No. 6007270). The substrate Gly-Arg-AMC was from Biotrend (Prod.-No. 808756 Custom peptide). Bovine serum albumin (BSA; Prod. No. A3059) and Dithiothreitol (DTT; Prod. No D0632) were from Sigma. TagZyme buffer was from Riedel-de-Haen (Prod.-No. 04269), NaCl was from Merck (Prod.-No. 1.06404.1000) and morpholinoethane sulfonic acid (MES), was from Serva (Prod.-No. 29834). […]
pIC50: −log10 of the molar value.
observedProperty: pIC50

Some solved entries appear below for comparison.
{"columns": ["molecule", "pIC50"],
 "data": [
  ["CS(=O)(=O)c1ccc(-c2ccc(C[C@@H](C#N)NC(=O)C34CCC(CC3)CN4)c(F)c2)cc1C#N [Example 18]", 7.82],
  ["N#Cc1ccc(-c2ccc(C[C@@H](C#N)NC(=O)C34CCC(CC3)N4)cc2)cc1F [Example 11]", 6.55],
  ["COCCN1C(=O)Cc2ccc(-c3ccc(C[C@@H](C#N)NC(=O)C45CCC(CC4)CN5)c(F)c3)cc21 [Example 26]", 8.37],
  ["CN1C(=O)Cc2ccc(-c3ccc(C[C@@H](C#N)NC(=O)[C@]45CCC[C@@H](CN4)C5)cc3)cc21 [Example 12]", 6.37],
  ["CS(=O)(=O)c1cc(-c2ccc(C[C@@H](C#N)NC(=O)[C@@]34CC[C@H](CN3)C4)cc2)ccc1C#N [Example 10]", 6.55],
  ["CS(=O)(=O)c1cc(-c2ccc(C[C@@H](C#N)NC(=O)[C@@]34CCO[C@@H](CN3)C4)cc2)ccc1C#N [Example 6]", 6.70],
  ["CN1Cc2ccc(-c3ccc(C[C@@H](C#N)NC(=O)C45CCC(CC4)CN5)c(F)c3)cc2C1 [Example 19]", 7.42],
  ["CS(=O)(=O)c1cc(-c2ccc(C[C@@H](C#N)NC(=O)[C@]34CC[C@@H](CN3)C4)cc2)ccc1C#N [Example 14]", 6.19]
]}

P = CN1C(=O)Cc2ccc(-c3ccc(C[C@@H](C#N)NC(=O)[C@@]45CC[C@H](CN4)C5)cc3)cc21 [Example 8]
Q = CN1C(=O)Cc2ccc(-c3ccc(C[C@@H](C#N)NC(=O)[C@@]45CCO[C@@H](CN4)C5)cc3)cc21 [Example 5]
**Q:** When P and Q are compared, which has the higher number for pIC50? State the label of the item chosen.
**A:** Q
(Q: 7.30, P: 6.66)
